Test: Organ distribution of injected radioactivity in rats after I.V. injection
Type: in vivo, Ratten (weiblich, Wistar, spf)
Conditions: rat, muscle, iv, Muskel, 2′, Ratte, read-out: Prozent der injizierten Aktivität pro Gramm des entsprechenden Organs
Readout label: tissue uptake at 2 min
State the result as a value with its unit after it.

Exam item: Determine its reported tissue uptake at 2 min: CCOC(=O)c1ncn2c1CN(C)C(=O)c1c([123I])cccc1-2
Marked response: 0.68 %ID/g

---

Assay: Organ distribution of injected radioactivity in rats after I.V. injection
Assay type: in vivo, Ratten (weiblich, Wistar, spf)
Details: rat, lung, iv, Lunge, 2′, Ratte, read-out: Prozent der injizierten Aktivität pro Gramm des entsprechenden Organs
Readout label: tissue uptake at 2 min (%ID/g)
Output spec: scalar in %ID/g, unitless text.

Exam item: Please report the measured tissue uptake at 2 min for CCOC(=O)c1ncn2c1CN(C)C(=O)c1c([123I])cccc1-2
Marked response: 1.22

---

Assay: Organ distribution of injected radioactivity in rats after I.V. injection
Type: in vivo, Ratten (weiblich, Wistar, spf)
Conditions: rat, spleen, iv, Milz, 2′, Ratte, read-out: Prozent der injizierten Aktivität pro Gramm des entsprechenden Organs
Readout label: tissue uptake at 2 min

Exam item: Provide measured tissue uptake at 2 min value, entry: CCOC(=O)c1ncn2c1CN(C)C(=O)c1c([123I])cccc1-2
Marked response: 0.6 %ID/g

---

Test: Organ distribution of injected radioactivity in rats after I.V. injection
Format: in vivo, Ratten (weiblich, Wistar, spf)
Conditions: rat, spleen, iv, Milz, 10′, Ratte, read-out: Prozent der injizierten Aktivität pro Gramm des entsprechenden Organs
Readout label: tissue uptake at 10 min (%ID/g)
// units = %ID/g; emit number, no label

Exam item: For CCOC(=O)c1ncn2c1CN(C)C(=O)c1c([123I])cccc1-2 , write its tissue uptake at 10 min.
Marked response: 0.53

---

Assay: Organ distribution of injected radioactivity in rats after I.V. injection
Type: in vivo, Ratten (weiblich, Wistar, spf)
Settings: rat, liver, iv, Leber, 6h, Ratte, read-out: Prozent der injizierten Aktivität pro Gramm des entsprechenden Organs
Readout label: tissue uptake at 6 h (%ID/g)
A number alone suffices; assume %ID/g.

Exam item: Query tissue uptake at 6 h for CCOC(=O)c1ncn2c1CN(C)C(=O)c1c([123I])cccc1-2
Marked response: 0.02

---

Assay: Organ distribution of injected radioactivity in rats after I.V. injection
Format: in vivo, Ratten (weiblich, Wistar, spf)
Details: rat, blood, iv, Blut, 40′, Ratte, read-out: Prozent der injizierten Aktivität pro Gramm des entsprechenden Organs
Readout label: tissue uptake at 40 min (%ID/g)
Entry rule: numbers only, all in %ID/g.

Exam item: Write down tissue uptake at 40 min measured for item CCOC(=O)c1ncn2c1CN(C)C(=O)c1c([123I])cccc1-2
Marked response: 0.17

---

Test: Organ distribution of injected radioactivity in rats after I.V. injection
Format: in vivo, Ratten (weiblich, Wistar, spf)
Conditions: rat, liver, iv, Leber, 20′, Ratte, read-out: Prozent der injizierten Aktivität pro Gramm des entsprechenden Organs
Readout label: tissue uptake at 20 min (%ID/g)
Just the number in %ID/g, nothing appended.

Exam item: Output measured tissue uptake at 20 min for this item: CCOC(=O)c1ncn2c1CN(C)C(=O)c1c([123I])cccc1-2
Marked response: 2.62

---

Assay: Organ distribution of injected radioactivity in rats after I.V. injection
Type: in vivo, Ratten (weiblich, Wistar, spf)
Conditions: rat, thyroid, iv, Schilddrüse, 15h, Ratte, read-out: Prozent der injizierten Aktivität pro Gramm des entsprechenden Organs
Description: Es werden je 3 Ratten (weiblich, Wistar, spf) zu sieben verschiedenen Zeitpunkten (2′, 10′, 20′, 40′, 1h, 6h, 15h) gemessen. Das Gewicht der Tiere lag zwischen 113 und 144 g. Die Fütterung erfolgte ad libitum. Die I.V. injizierten Dosen variierten von 184 bis 355 µCi in jeweils 0,2 ml.
Readout label: tissue uptake at 15 h (%ID/g)
Record the value in %ID/g, omitting the unit from your answer.

Exam item: Supply recorded tissue uptake at 15 h for CCOC(=O)c1ncn2c1CN(C)C(=O)c1c([123I])cccc1-2 here.
Marked response: 0.007

---

Assay: Organ distribution of injected radioactivity in rats after I.V. injection
Type: in vivo, Ratten (weiblich, Wistar, spf)
Details: rat, bladder, iv, Blase, 15h, Ratte, read-out: Prozent der injizierten Aktivität pro Gramm des entsprechenden Organs
Readout label: tissue uptake at 15 h
Your answer should be a number followed by the unit of measure.

Exam item: Return reported tissue uptake at 15 h. Input compound: CCOC(=O)c1ncn2c1CN(C)C(=O)c1c([123I])cccc1-2
Marked response: 0.023 %ID/g

---

Test: Organ distribution of injected radioactivity in rats after I.V. injection
Type: in vivo, Ratten (weiblich, Wistar, spf)
Settings: rat, ovary, iv, Ovar, 40′, Ratte, read-out: Prozent der injizierten Aktivität pro Gramm des entsprechenden Organs
Readout label: tissue uptake at 40 min (%ID/g)
I only need the number, in %ID/g, no unit after it.

Exam item: Kindly indicate its recorded tissue uptake at 40 min. Item: CCOC(=O)c1ncn2c1CN(C)C(=O)c1c([123I])cccc1-2
Marked response: 0.22

---

Assay: Organ distribution of injected radioactivity in rats after I.V. injection
Format: in vivo, Ratten (weiblich, Wistar, spf)
Conditions: rat, iv, Femur, 2′, Ratte, read-out: Prozent der injizierten Aktivität pro Gramm des entsprechenden Organs
Readout label: tissue uptake at 2 min (%ID/g)
Reply numerically in %ID/g, unit not repeated.

Exam item: Identify tissue uptake at 2 min associated with the compound CCOC(=O)c1ncn2c1CN(C)C(=O)c1c([123I])cccc1-2
Marked response: 0.54

---

Assay: Organ distribution of injected radioactivity in rats after I.V. injection
Assay type: in vivo, Ratten (weiblich, Wistar, spf)
Conditions: rat, ovary, iv, Ovar, 60′, Ratte, read-out: Prozent der injizierten Aktivität pro Gramm des entsprechenden Organs
Readout label: tissue uptake at 1 h (%ID/g)
// note: answer is a bare numeric in %ID/g

Exam item: Report measured tissue uptake at 1 h; entry is CCOC(=O)c1ncn2c1CN(C)C(=O)c1c([123I])cccc1-2
Marked response: 0.16

---

Experiment: Organ distribution of injected radioactivity in rats after I.V. injection
Format: in vivo, Ratten (weiblich, Wistar, spf)
Settings: rat, heart, iv, Herz, 10′, Ratte, read-out: Prozent der injizierten Aktivität pro Gramm des entsprechenden Organs
Readout label: tissue uptake at 10 min (%ID/g)
Give a bare numeral; the unit %ID/g is implied.

Exam item: State its tissue uptake at 10 min for this compound: CCOC(=O)c1ncn2c1CN(C)C(=O)c1c([123I])cccc1-2
Marked response: 0.66

---

Assay: Organ distribution of injected radioactivity in rats after I.V. injection
Assay type: in vivo, Ratten (weiblich, Wistar, spf)
Settings: rat, brain, iv, Hirn, 6h, Ratte, read-out: Prozent der injizierten Aktivität pro Gramm des entsprechenden Organs
Readout label: tissue uptake at 6 h (%ID/g)
Give the quantity in %ID/g, number only.

Exam item: Note tissue uptake at 6 h for the molecule shown: CCOC(=O)c1ncn2c1CN(C)C(=O)c1c([123I])cccc1-2
Marked response: 0.05

---

Assay: Organ distribution of injected radioactivity in rats after I.V. injection
Format: in vivo, Ratten (weiblich, Wistar, spf)
Conditions: rat, ovary, iv, Ovar, 6h, Ratte, read-out: Prozent der injizierten Aktivität pro Gramm des entsprechenden Organs
Readout label: tissue uptake at 6 h (%ID/g)
Express the result in %ID/g but write the number alone.

Exam item: Kindly indicate its recorded tissue uptake at 6 h. Item: CCOC(=O)c1ncn2c1CN(C)C(=O)c1c([123I])cccc1-2
Marked response: 0.03

---

Test: Organ distribution of injected radioactivity in rats after I.V. injection
Assay type: in vivo, Ratten (weiblich, Wistar, spf)
Settings: rat, muscle, iv, Muskel, 10′, Ratte, read-out: Prozent der injizierten Aktivität pro Gramm des entsprechenden Organs
Readout label: tissue uptake at 10 min (%ID/g)
Reply numerically in %ID/g, unit not repeated.

Exam item: Give tissue uptake at 10 min for CCOC(=O)c1ncn2c1CN(C)C(=O)c1c([123I])cccc1-2
Marked response: 0.42

---

Test: Organ distribution of injected radioactivity in rats after I.V. injection
Format: in vivo, Ratten (weiblich, Wistar, spf)
Conditions: rat, brain, iv, Hirn, 60′, Ratte, read-out: Prozent der injizierten Aktivität pro Gramm des entsprechenden Organs
Readout label: tissue uptake at 1 h (%ID/g)
Please give a number only; it is taken to be in %ID/g.

Exam item: Return tissue uptake at 1 h (reported value) for this compound: CCOC(=O)c1ncn2c1CN(C)C(=O)c1c([123I])cccc1-2
Marked response: 1.8

---

Assay: Organ distribution of injected radioactivity in rats after I.V. injection
Type: in vivo, Ratten (weiblich, Wistar, spf)
Details: rat, iv, Femur, 15h, Ratte, read-out: Prozent der injizierten Aktivität pro Gramm des entsprechenden Organs
Experimental: Es werden je 3 Ratten (weiblich, Wistar, spf) zu sieben verschiedenen Zeitpunkten (2′, 10′, 20′, 40′, 1h, 6h, 15h) gemessen. Das Gewicht der Tiere lag zwischen 113 und 144 g. Die Fütterung erfolgte ad libitum. Die I.V. injizierten Dosen variierten von 184 bis 355 µCi in jeweils 0,2 ml.
Readout label: tissue uptake at 15 h
Dear colleague, please send the value followed by its unit.

Exam item: Write down tissue uptake at 15 h measured for item CCOC(=O)c1ncn2c1CN(C)C(=O)c1c([123I])cccc1-2
Marked response: 0.007 %ID/g
